// reported growth inhibition per item
# EXPERIMENTAL_DETAILS: NCI Yeast Anticancer Drug Screen. Data for the rad50 strain (AID 155);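 note: 0% = growth of vehicle-only cultures of the same strain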
# CONDITION_DETAILS: S. cerevisiae rad50 strain growth inhibition; at 50.0 µM; hits give high values
Compounds without any hit were thinned out: in the full panel of roughly 79,000, 15% have a hit.
// units = %; emit number, no label

Nc1ccc(Cl)c(C(F)(F)F)c1; 0.85
CCCCC(CC)C(O)P(=O)(OCC)OCC (centres undefined); -0.55
Oc1ccc(C=NCC2CCCC[N-]2)c(O)c1.Oc1ccc(C=NCC2CCCC[N-]2)c(O)c1.[Ni+2] (centres undefined); 7.3

Next compound, please.
Input: Output growth inhibition of CN1C2CCC1c1c([nH]c3ccccc13)C2 (centres undefined)
Output: 3.25
